Molecular target: Human FXR full length (Homo sapiens)
Construct: Human FXR full length and RXR full length was obtained from Ronald Evans' laboratory; expressed in transfected cells; host or cells: CV-1 cells
Sequence (Q96RI1 1-476 isoform Q96RI1-1): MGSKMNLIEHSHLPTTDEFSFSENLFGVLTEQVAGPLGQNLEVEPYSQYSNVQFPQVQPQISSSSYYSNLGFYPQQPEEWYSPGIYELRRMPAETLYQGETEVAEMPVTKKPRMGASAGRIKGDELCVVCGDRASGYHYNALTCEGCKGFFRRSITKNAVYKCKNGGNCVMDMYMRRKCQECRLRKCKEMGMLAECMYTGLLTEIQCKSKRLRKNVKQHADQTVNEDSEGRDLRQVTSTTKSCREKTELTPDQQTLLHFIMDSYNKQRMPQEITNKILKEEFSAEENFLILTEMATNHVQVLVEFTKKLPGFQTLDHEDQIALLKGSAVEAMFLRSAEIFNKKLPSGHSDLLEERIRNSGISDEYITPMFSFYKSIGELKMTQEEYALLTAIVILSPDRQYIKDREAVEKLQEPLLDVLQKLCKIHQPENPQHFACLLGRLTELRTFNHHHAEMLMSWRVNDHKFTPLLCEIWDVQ
Sequence (P19793 1-462 partner): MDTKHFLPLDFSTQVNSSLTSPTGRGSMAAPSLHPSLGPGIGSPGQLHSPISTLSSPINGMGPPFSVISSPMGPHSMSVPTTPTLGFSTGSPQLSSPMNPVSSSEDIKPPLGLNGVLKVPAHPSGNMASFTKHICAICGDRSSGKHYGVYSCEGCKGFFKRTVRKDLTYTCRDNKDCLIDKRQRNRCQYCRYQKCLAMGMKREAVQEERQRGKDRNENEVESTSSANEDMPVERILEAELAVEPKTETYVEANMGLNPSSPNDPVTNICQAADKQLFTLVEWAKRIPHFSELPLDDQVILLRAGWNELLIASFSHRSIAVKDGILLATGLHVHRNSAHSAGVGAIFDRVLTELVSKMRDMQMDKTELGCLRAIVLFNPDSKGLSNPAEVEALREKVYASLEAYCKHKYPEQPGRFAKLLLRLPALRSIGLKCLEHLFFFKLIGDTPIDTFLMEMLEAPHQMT
Assay: FXR activity screen, luciferase reporter in transfected CV-1 cells
Type: cell-based
Settings: second round; CV-1 cells, 24 hours; read-out: 2nd RND EC50
Experimental: CV-1 cells were grown in DMEM+10% charcoal stripped FCS. Cells were seeded into 384-well plates the day before transfection to give a confluency of 50-80% at transfection. […] Medium including test compound was aspirated and washed with PBS. […] Light emission was quantified by counting on a Perkin Elmer Envision reader. […] Beta-galactosidase assays were performed in the microwell plates using a kit from Promega and read in a Perkin Elmer Envision reader. […]
Measured EC50, listed per entry.

[
  {
    "COMPOUND": "[2H]C(c1ccc(-c2ccc3c(cnn3C)c2)cc1)N(C(=O)c1ccccc1)c1cncc(/C=C/C(=O)OC)c1 (stereo not drawn) [NSSK00119]",
    "UNIT_SYMBOL": "nM",
    "EC50": 65000
  },
  {
    "COMPOUND": "COC(=O)/C=C/c1cc(F)cc(N(Cc2ccc(-c3ccc(N(C)C)cc3)cc2F)C(=O)[C@@H]2C[C@@H]3CC[C@H]2C3)c1 [NSSK00044]",
    "UNIT_SYMBOL": "nM",
    "EC50": 144
  },
  {
    "COMPOUND": "COC(=O)/C=C/c1cncc(N(Cc2ccc(-c3ccc(N(C)C)cc3)cc2Cl)C(=O)c2ccccc2)c1 [NSSK00081]",
    "UNIT_SYMBOL": "nM",
    "EC50": 71000
  },
  {
    "COMPOUND": "[2H]C(c1ccc(-c2ccc(N(C)C)cc2)cc1Cl)N(C(=O)c1ccccc1)c1cncc(/C=C/C(=O)OC)c1 (stereo not drawn) [NSSK00065]",
    "UNIT_SYMBOL": "nM",
    "EC50": 6000
  },
  {
    "COMPOUND": "COC(=O)/C=C/c1cccc(N(Cc2cccc3ccc(N(C)C)c(F)c23)C(=O)C2CCCCC2)c1 [NSSK00002]",
    "UNIT_SYMBOL": "nM",
    "EC50": 65.9
  },
  {
    "COMPOUND": "COC(=O)/C=C/c1cncc(N(Cc2ccc(-c3ccc4c(cnn4C)c3)cc2)C(=O)c2ccccc2)c1 [NSSK00118]",
    "UNIT_SYMBOL": "nM",
    "EC50": 55000
  },
  {
    "COMPOUND": "COC(=O)/C=C/c1cncc(N(Cc2ccc(-c3ccc4c(cnn4C)c3)cc2Cl)C(=O)c2ccccc2)c1 [NSSK00092]",
    "UNIT_SYMBOL": "nM",
    "EC50": 5500
  },
  {
    "COMPOUND": "[2H]C(c1ccc(-c2ccc3c(cnn3C)c2)cc1)N(C(=O)c1ccccc1)c1cccc(/C=C/C(=O)OC)c1 (stereo not drawn) [NSSK00049]",
    "UNIT_SYMBOL": "nM",
    "EC50": 3500
  },
  {
    "COMPOUND": "COC(=O)/C=C/c1cncc(N(Cc2ccc(-c3ccc(N(C)C)cc3)cc2Cl)C(=O)[C@@H]2C[C@@H]3CC[C@H]2C3)c1 [NSSK00082]",
    "UNIT_SYMBOL": "nM",
    "EC50": 6100
  },
  {
    "COMPOUND": "[2H]C(c1ccc(-c2ccc3c(cnn3C)c2)cc1Cl)N(C(=O)C1CCCCC1)c1cc(F)cc(/C=C/C(=O)OC)c1 (stereo not drawn) [NSSK00016]",
    "UNIT_SYMBOL": "nM",
    "EC50": 377
  },
  {
    "COMPOUND": "COC(=O)/C=C/c1cncc(N(Cc2cccc3cc4cnn(C)c4c(F)c23)C(=O)C2CCCCC2)c1 [NSSK00008]",
    "UNIT_SYMBOL": "nM",
    "EC50": 1400
  },
  {
    "COMPOUND": "[2H]C(c1ccc(-c2ccc(N(C)C)cc2)cc1F)N(C(=O)C1CCCCC1)c1cccc(/C=C/C(=O)OC)c1 (stereo not drawn) [NSSK00027]",
    "UNIT_SYMBOL": "nM",
    "EC50": 46.6
  },
  {
    "COMPOUND": "[2H]C(c1ccc(-c2ccc3c(cnn3C)c2)cc1F)N(C(=O)[C@@H]1C[C@@H]2CC[C@H]1C2)c1cncc(/C=C/C(=O)OC)c1 (stereo partly drawn) [NSSK00066]",
    "UNIT_SYMBOL": "nM",
    "EC50": 8500
  },
  {
    "COMPOUND": "[2H]C(c1ccc(-c2ccc(N(C)C)cc2)cc1F)N(C(=O)C1CCCCC1)c1cc(F)cc(/C=C/C(=O)OC)c1 (stereo not drawn) [NSSK00109]",
    "UNIT_SYMBOL": "nM",
    "EC50": 316
  },
  {
    "COMPOUND": "[2H]C(c1ccc(-c2ccc(N(C)C)cc2)cc1Cl)N(C(=O)[C@@H]1C[C@@H]2CC[C@H]1C2)c1cccc(/C=C/C(=O)OC)c1 (stereo partly drawn) [NSSK00045]",
    "UNIT_SYMBOL": "nM",
    "EC50": 334
  },
  {
    "COMPOUND": "[2H]C(c1ccc(-c2ccc3c(cnn3C)c2)cc1Cl)N(C(=O)[C@@H]1C[C@@H]2CC[C@H]1C2)c1cc(F)cc(/C=C/C(=O)OC)c1 (stereo partly drawn) [NSSK00094]",
    "UNIT_SYMBOL": "nM",
    "EC50": 865
  },
  {
    "COMPOUND": "COC(=O)/C=C/c1cc(F)cc(N(Cc2ccc(-c3ccc4c(cnn4C)c3)cc2)C(=O)C2CCCCC2)c1 [NSSK00084]",
    "UNIT_SYMBOL": "nM",
    "EC50": 4700
  },
  {
    "COMPOUND": "COC(=O)/C=C/c1cncc(N(Cc2cccc3cc4cnn(C)c4cc23)C(=O)[C@@H]2C[C@@H]3CC[C@H]2C3)c1 [NSSK00018]",
    "UNIT_SYMBOL": "nM",
    "EC50": 415
  },
  {
    "COMPOUND": "[2H]C(c1ccc(-c2ccc3c(cnn3C)c2)cc1F)N(C(=O)C1CCCCC1)c1cccc(/C=C/C(=O)OC)c1 (stereo not drawn) [NSSK00089]",
    "UNIT_SYMBOL": "nM",
    "EC50": 406
  },
  {
    "COMPOUND": "[2H]C(c1ccc(-c2ccc3c(cnn3C)c2)cc1F)N(C(=O)C1CCCCC1)c1cc(F)cc(/C=C/C(=O)OC)c1 (stereo not drawn) [NSSK00011]",
    "UNIT_SYMBOL": "nM",
    "EC50": 379
  },
  {
    "COMPOUND": "COC(=O)/C=C/c1cccc(N(Cc2ccc(-c3ccc(N(C)C)cc3)cc2F)C(=O)[C@@H]2C[C@@H]3CC[C@H]2C3)c1 [NSSK00043]",
    "UNIT_SYMBOL": "nM",
    "EC50": 80.7
  },
  {
    "COMPOUND": "[2H]C(c1ccc(-c2ccc(N(C)C)cc2)cc1Cl)N(C(=O)[C@@H]1C[C@@H]2CC[C@H]1C2)c1cncc(/C=C/C(=O)OC)c1 (stereo partly drawn) [NSSK00064]",
    "UNIT_SYMBOL": "nM",
    "EC50": 3300
  },
  {
    "COMPOUND": "COC(=O)/C=C/c1cccc(N(Cc2ccc(-c3ccc(N(C)C)cc3)cc2Cl)C(=O)C2CCCCC2)c1 [NSSK00080]",
    "UNIT_SYMBOL": "nM",
    "EC50": 610
  },
  {
    "COMPOUND": "COC(=O)/C=C/c1cncc(N(Cc2ccc(-c3ccc(N(C)C)cc3)cc2F)C(=O)[C@@H]2C[C@@H]3CC[C@H]2C3)c1 [NSSK00115]",
    "UNIT_SYMBOL": "nM",
    "EC50": 2000
  },
  {
    "COMPOUND": "COC(=O)/C=C/c1cncc(N(Cc2ccc(-c3ccc(N(C)C)cc3)cc2F)C(=O)C2CCCCC2)c1 [NSSK00078]",
    "UNIT_SYMBOL": "nM",
    "EC50": 673
  },
  {
    "COMPOUND": "[2H]C(c1ccc(-c2ccc(N(C)C)cc2)cc1F)N(C(=O)c1ccccc1)c1cncc(/C=C/C(=O)OC)c1 (stereo not drawn) [NSSK00116]",
    "UNIT_SYMBOL": "nM",
    "EC50": 8600
  },
  {
    "COMPOUND": "COC(=O)/C=C/c1cc(F)cc(N(Cc2ccc(-c3ccc4c(cnn4C)c3)cc2F)C(=O)c2ccccc2)c1 [NSSK00099]",
    "UNIT_SYMBOL": "nM",
    "EC50": 2100
  }
]

Source: patent US20190084939A1
